meta.source: ChEMBL document CHEMBL6127103

target: Carbonic anhydrase 12 (Homo sapiens, UniProt O43570); assay: Inhibition of human carbonic anhydrase XII assessed as inhibition constant incubated for 15 mins by stopped-flow carbon dioxide hydration assay
Sequence (O43570 whole entry): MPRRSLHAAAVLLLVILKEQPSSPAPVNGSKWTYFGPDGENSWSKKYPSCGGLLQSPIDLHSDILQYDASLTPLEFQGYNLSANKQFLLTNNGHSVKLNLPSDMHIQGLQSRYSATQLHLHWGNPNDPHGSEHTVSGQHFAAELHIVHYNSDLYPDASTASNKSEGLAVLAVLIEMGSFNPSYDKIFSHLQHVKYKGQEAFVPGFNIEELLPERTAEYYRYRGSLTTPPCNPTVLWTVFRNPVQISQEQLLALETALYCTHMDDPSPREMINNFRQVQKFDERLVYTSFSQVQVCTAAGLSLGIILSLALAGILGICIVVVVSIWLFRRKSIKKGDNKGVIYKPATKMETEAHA
Measured parameter: Ki (nM)

Example results:
Mol | Result value
O=[N+]([O-])c1ccc(NC(=S)Nc2ccc3c(c2)B(O)OCC3)cc1 | 46.4
OB1OCCc2ccc(NC(=S)Nc3ccccc3)cc21 | 191
OB1OCCc2ccccc21 | 754
OB1OCCc2ccc(NC(=S)Nc3ccc(C(F)(F)F)cc3)cc21 | 82
O=C(Nc1ccc(C(F)(F)F)cc1)Nc1ccc2c(c1)B(O)OCC2 | 354

A = O=[N+]([O-])c1ccc2c(c1)B(O)OCC2
B = OB1OCCc2ccc(NC(=S)NCc3ccccc3)cc21
Req: Of A and B , which shows the smaller Ki value? The response must carry the label of the picked entry.
Resp: B
(B: 69 nM, A: 920 nM)

###

target: Carbonic anhydrase 1 (Homo sapiens); experiment: Inhibition of human carbonic anhydrase I assessed as inhibition constant incubated for 15 mins by stopped-flow carbon dioxide hydration assay
Sequence (P00915 whole entry): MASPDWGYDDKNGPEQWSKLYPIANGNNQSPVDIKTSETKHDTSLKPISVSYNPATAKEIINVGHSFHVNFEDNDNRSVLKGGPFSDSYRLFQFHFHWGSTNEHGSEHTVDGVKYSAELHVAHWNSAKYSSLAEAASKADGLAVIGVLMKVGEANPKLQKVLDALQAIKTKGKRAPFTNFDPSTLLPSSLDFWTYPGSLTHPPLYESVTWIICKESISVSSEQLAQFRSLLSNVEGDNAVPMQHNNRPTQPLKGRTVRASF
Measured parameter: Ki (µM)

Example results:
Mol | Ki [µM]
O=[N+]([O-])c1ccc(NC(=S)Nc2ccc3c(c2)B(O)OCC3)cc1 | 0.523
O=C(Nc1ccc(F)cc1)Nc1ccc2c(c1)B(O)OCC2 | 3.49

I = OB1OCCc2ccccc21
II = O=[N+]([O-])c1ccc2c(c1)B(O)OCC2
III = OB1OCCc2ccc(NC(=S)Nc3ccc(F)cc3)cc21
Req: With regard to Ki, arrange the entries in ascending order, please. Put the labels in the order asked and list them.
Resp: III, I, II

###

Form: system (Carbonic anhydrase 9 (Homo sapiens)), quantity (pKi), values below.
pKi: −log10 of the molar value.
Measured parameter: pKi

Mol | pKi
OB1OCCc2ccccc21 | 5.01
OB1OCCc2ccc(NC(=S)Nc3ccc(C(F)(F)F)cc3)cc21 | 6.46
O=C(Nc1ccccc1)Nc1ccc2c(c1)B(O)OCC2 | 6.57

I = O=[N+]([O-])c1ccc2c(c1)B(O)OCC2
II = O=C(Nc1ccc(C(F)(F)F)cc1)Nc1ccc2c(c1)B(O)OCC2
Req: Which is greater in pKi, the first item I or the second item II ? The response must carry the label of the picked entry.
Resp: I

1 = OB1OCCc2ccc(NC(=S)Nc3ccccc3)cc21
2 = O=C(NCc1ccccc1)Nc1ccc2c(c1)B(O)OCC2
3 = O=[N+]([O-])c1ccc(NC(=S)Nc2ccc3c(c2)B(O)OCC3)cc1
Req: Reorder: pKi, max to min. Put the labels in the order asked and list them.
Resp: 3, 2, 1
(3: 7.20, 2: 6.79, 1: 6.51)

1 = O=C(Nc1ccc(F)cc1)Nc1ccc2c(c1)B(O)OCC2
2 = OB1OCCc2ccc(NC(=S)NCc3ccccc3)cc21
Req: Of 1 and 2 , which shows the smaller pKi value? The response must carry the label of the picked entry.
Resp: 1
(1: 6.35, 2: 7.28)

A = Nc1ccc2c(c1)B(O)OCC2
B = OB1OCCc2ccc(NC(=S)Nc3ccc(F)cc3)cc21
Req: Of A and B , which shows the smaller pKi value? The response must carry the label of the picked entry.
Resp: B

###

biological target: UniProt P00915; assay: Inhibition of human carbonic anhydrase I assessed as inhibition constant incubated for 15 mins by stopped-flow carbon dioxide hydration assay
Measured parameter: Ki (µM)

Mol | Tgt | Result value
O=C(Nc1ccc(C(F)(F)F)cc1)Nc1ccc2c(c1)B(O)OCC2 | UniProt P00915 | 20.7
OB1OCCc2ccc(NC(=S)NCc3ccccc3)cc21 | UniProt P00915 | 0.614
OB1OCCc2ccc(NC(=S)Nc3ccc(C(F)(F)F)cc3)cc21 | UniProt P00915 | 16.8

I = O=C(Nc1ccccc1)Nc1ccc2c(c1)B(O)OCC2
II = O=C(NCc1ccccc1)Nc1ccc2c(c1)B(O)OCC2
Req: Of I and II , which shows the smaller Ki value? The response must carry the label of the picked entry.
Resp: II
(II: 0.637 µM, I: 19 µM)

###

molecular target: UniProtKB O43570; assay: Inhibition of human carbonic anhydrase XII catalytic domain assessed as inhibition constant incubated for 15 to 360 mins by stopped-flow CO2 hydration assay
pKi: −log10 of the molar value.
Measured parameter: pKi

Example results:
Mol | pKi
OB1OCc2ccc(NC(=S)NCc3ccccc3)cc21 | 7.38
O=C(NCc1ccccc1)Nc1ccc2c(c1)B(O)OC2 | 6.74
O=C(Nc1ccc(F)cc1)Nc1ccc2c(c1)B(O)OC2 | 6.76
O=[N+]([O-])c1ccc2c(c1)B(O)OC2 | 7.04
O=C(Nc1ccc(C(F)(F)F)cc1)Nc1ccc2c(c1)B(O)OC2 | 7.03
OB1OCc2ccc(NC(=S)Nc3ccc(F)cc3)cc21 | 7.05

I = Nc1ccc2c(c1)B(O)OC2
II = OB1OCc2ccc(NC(=S)Nc3ccccc3)cc21
III = O=C(Nc1ccccc1)Nc1ccc2c(c1)B(O)OC2
Req: With regard to pKi, arrange the entries in ascending order, please. Put the labels in the order asked and list them.
Resp: I, III, II
(I: 6.19, III: 6.62, II: 7.12)

###

system: A-375; assay: Anti-melanoma activity against human A-375 cells assessed as inhibition of cell proliferation incubated for 72 hrs by MACSQUant analyzer; assay type: functional, cell-based; settings: A-375, 72 h
pIC50: −log10 of the molar value.
Measured parameter: pIC50

Compound | Measured parameter | Result value
OB1OCCc2ccc(NC(=S)NCc3ccccc3)cc21 | pIC50 | 3.90
O=C(Nc1ccc(F)cc1)Nc1ccc2c(c1)B(O)OCC2 | pIC50 | 3.88

A = O=C(NCc1ccccc1)Nc1ccc2c(c1)B(O)OCC2
B = NS(=O)(=O)c1ccc(NC(=O)Nc2ccc(F)cc2)cc1 [SLC-0111]
Req: Of A and B , which shows the smaller pIC50 value? The response must carry the label of the picked entry.
Resp: B
(B: 3.95, A: 4.50)

###

biological target: Carbonic anhydrase 9 (Homo sapiens, UniProt Q16790); experiment: Inhibition of human carbonic anhydrase IX catalytic domain assessed as inhibition constant incubated for 15 to 360 mins by stopped-flow CO2 hydration assay
pKi: −log10 of the molar value.
Measured parameter: pKi

Mol | Tgt | Result value
Nc1ccc2c(c1)B(O)OC2 | Carbonic anhydrase 9 (Homo sapiens, UniProt Q16790) | 6.09
O=C(NCc1ccccc1)Nc1ccc2c(c1)B(O)OC2 | Carbonic anhydrase 9 (Homo sapiens, UniProt Q16790) | 6.03
OB1OCc2ccc(NC(=S)NCc3ccccc3)cc21 | Carbonic anhydrase 9 (Homo sapiens, UniProt Q16790) | 6.21

###

target: Carbonic anhydrase 12 (Homo sapiens, UniProt O43570); assay: Inhibition of human carbonic anhydrase XII assessed as inhibition constant incubated for 15 mins by stopped-flow carbon dioxide hydration assay
Measured parameter: Ki (nM)

Mol | Tgt | Ki, nM
O=C(Nc1ccccc1)Nc1ccc2c(c1)B(O)OCC2 | Carbonic anhydrase 12 (Homo sapiens, UniProt O43570) | 210

A = OB1OCCc2ccc(NC(=S)Nc3ccc(F)cc3)cc21
B = Nc1ccc2c(c1)B(O)OCC2
C = O=C(NCc1ccccc1)Nc1ccc2c(c1)B(O)OCC2
D = O=C(Nc1ccc(F)cc1)Nc1ccc2c(c1)B(O)OCC2
Req: Reorder: Ki, max to min. Put the labels in the order asked and list them.
Resp: B, D, A, C
